These data points were gathered from ChEMBL document CHEMBL1201862.

Could you please report measured GI50 for the items listed next?
System: DU-145
Test: NCI tumour cell line growth inhibition, 48 h
Active and inactive are the calls of the source. Cut-off read from the data, not from the text of the source: active = GI50 up to about 1.1 µM and inactive = higher.

In the examples that follow, each entry is paired with its recorded GI50.
| Compound | Measured Target | GI50 |
| --- | --- | --- |
| O=C(c1ccccc1)c1c(C(F)(F)F)[n+]([O-])c2ccccc2[n+]1[O-] | DU-145 | 1.73 µM (inactive) |
| CC(C)[Si]1(C(C)C)OCC2OC(n3ccc(=O)[nH]c3=O)C([Se]c3ccccc3)C2O[Si](C(C)C)(C(C)C)O1 (configuration not stated) | DU-145 | 12.2 µM (inactive) |
| O=C1C=C2CC[C@H]3[C@@H]4CC[C@H](OC(=O)c5cccc6cc7ccccc7nc56)[C@H]4CC[C@@H]3[C@H]2CC1 | DU-145 | > 100 µM (inactive) |

# map each compound to its GI50
1. CC(C)[C@H]1NC(=O)[C@H]2N=C(O[C@@H]2C)[C@@H]2CCCN2C(=O)[C@H](Cc2ccccc2)NC(=O)[C@@H]2COC(=N2)[C@@H](Cc2ccccc2)NC(=O)[C@@H]2COC1=N2
2. COc1ccc2nc3cc(Cl)ccc3c(NCCNC(=O)Cn3c(=O)n(C)c(=O)c4c3nc3c(c(=O)n(C)c(=O)n3C)[n+]4[O-])c2c1

1. > 100 µM (inactive)
2. > 84.3 µM (inactive)

# map each compound to its GI50
1. NC1=Nc2ncccc2C(=O)NN1
2. COC(=O)CSc1nc2[nH]c(SC)c(C(N)=O)c2c(=O)n1-c1ccccc1

> 10 µM (inactive)
> 10 µM (inactive)

----------
Could you please report measured GI50 for the items listed next?
Test system: NCI-H226
Test: NCI tumour cell line growth inhibition, 48 h
The source made the active and inactive calls. No stated cut-off is given here; in the data, active = GI50 up to about 1.1 µM and inactive = higher.

In the examples that follow, each entry is paired with its recorded GI50.
| Molecule | GI50 |
| --- | --- |
| Cc1nc2c(=S)[nH]ncc2[nH]1 | > 100 µM (inactive) |
| Oc1c(CN2CCCC2)ccc2cccnc12 | 21.5 µM (inactive) |
| O=C(Nc1ccccc1)N1C(c2ccccc2)=N[C@@H](c2ccccc2)[C@@H]1c1ccccc1 | 23.3 µM (inactive) |
| CCC(=O)Nc1ccc(/N=C/c2cccc(Oc3ccccc3)c2)cc1 | 18.2 µM (inactive) |
| COc1ccc(/C=C/c2sc3ccccc3[n+]2CCCCI)cc1OC | > 10 µM (inactive) |

# map each molecule to its GI50
1. C(=C\N1CCCCC1)/c1nnnn1-c1ccccc1
2. Nc1nc(Cl)cc(NCC2(CO)CCCC2)n1
3. CO[C@H]1C=C[C@]23c4cc5c(cc4CN(CC2O)[C@@H]3C1)OCO5 (stereo partly specified)

37.2 µM (inactive)
> 100 µM (inactive)
6.9 µM (inactive)

----------
Test system: LOX IMVI
Test: NCI tumour cell line growth inhibition, 48 h
Activity calls are given as the source filed them. Cut-off read from the data, not from the text of the source: active = GI50 up to about 1.1 µM and inactive = higher.
Bench note: report the call from YES = active, NO = inactive

Field: example entries. Status: answers known.
| Compound | Class |
| --- | --- |
| O=C1c2ccccc2C(=O)C1C(c1ccc(F)cc1)C1C(=O)c2ccccc2C1=O | NO |
| C[C@]12CC[C@H]3[C@@H](CC=C4C[C@@H](O)CC[C@@]43C)[C@@H]1C/C(=C\c1ccc([N+](=O)[O-])cc1)[C@@H]2O | NO |
| c1ccc(Nc2nnc(-c3nsc4ccccc34)o2)cc1 | NO |

What did the test return for CCCCC[C@@H]1CCCC2NC(CCCCCO[Si](c3ccccc3)(c3ccccc3)C(C)(C)C)CCC21 (stereo partly specified) ?
NO

What did the test return for `Cc1ccc(NC(=O)NC(=O)c2ccc([N+](=O)[O-])cc2[N+](=O)[O-])cc1Oc1ncc(Cl)cn1` ?
YES

What did the test return for COc1ccc(C(O)/C(=N\NC(N)=S)c2nc3ccc([N+](=O)[O-])cc3nc2O)cc1OC (stereo unspecified) ?
NO

What did the test return for NC(CC1=CS(=O)(=O)c2ccc(Cl)cc21)C(=O)O (stereo unspecified) ?
NO

What did the test return for `Nc1c(S(=O)(=O)O)cc(S(=O)(=O)O)c2ccc(/N=N/c3ccccc3)c(O)c12` ?
NO

What did the test return for `Cc1ccccc1/N=N/c1ccc(/N=N/c2c(O)ccc3ccccc23)c(C)c1` ?
NO

What did the test return for `CCOC(=O)COc1ccc(/C=C/C(=O)c2ccc(OC)cc2)cc1` ?
NO

What did the test return for `O=C1c2cc(Br)ccc2-c2ccc3c4ccc5c6c(ccc(c7ccc1c2c73)c64)C(=O)c1cc(Br)ccc1-5` ?
NO

----------
System: SR
Test: NCI tumour cell line growth inhibition, 48 h
Activity calls are given as the source filed them. Rule as the data show it: active = GI50 up to about 1.1 µM and inactive = higher.
Bench note: report the call from 1 (active), 0 (inactive)

| Compound | Class |
| --- | --- |
| Cc1ccc(S(=O)(=O)N/N=C/c2oc(-c3cccc([N+](=O)[O-])c3)c(-c3cccc([N+](=O)[O-])c3)c2[N+](=O)[O-])cc1 | 0 |

What did the test return for `CCC(=O)Nc1ccc(/N=C/c2cccc(Oc3ccccc3)c2)cc1` ?
0

What did the test return for `CCOC1=C2N=C(Cc3ccccc3F)N=C2C(=O)c2ccccc21` ?
0

What did the test return for CC(O)C1OC(O)C2OC(C)(C)OC12 (centres undefined) ?
0

What did the test return for CCCSc1nc(-c2ccc(OC)cc2)c(C#N)c(=O)n1C1OC(COC(C)=O)C(OC(C)=O)C(OC(C)=O)C1OC(C)=O (centres undefined) ?
0

What did the test return for `COc1ccc2c(O)c(Oc3ccc(Cl)cc3)c(=O)oc2c1` ?
0

What did the test return for `COC1=C(OC)C(=O)c2cc(SC)c(=O)c(SC)cc2C1=O` ?
0

What did the test return for O=C(O)CCSC(CC1(c2ccc(Cl)cc2)NC(=O)CCS1)c1ccccc1 (centres undefined) ?
0

What did the test return for `CCCN(CCC)c1c([N+](=O)[O-])cc(C(=O)N(CC)CC)cc1[N+](=O)[O-]` ?
0

What did the test return for CC1C(=O)C23OC[C@@]1(C)C1(O)CC[C@@H](C)[C@]21CC3=O (some centres undefined) ?
0

What did the test return for `COc1ccc(/C=N/c2ccc(-c3nc4ccccc4s3)cc2)cc1OC` ?
0

What did the test return for `O=C(CCl)Nc1ccc(-c2nc3ccccc3s2)cc1` ?
0

----------
System: NCI-H23
Test: NCI tumour cell line growth inhibition, 48 h
The source made the active and inactive calls. Rule as the data show it: active = GI50 up to about 1.1 µM and inactive = higher.
Measured Quantity: GI50

In the examples that follow, each entry is paired with its recorded GI50.
| Molecule | GI50 |
| --- | --- |
| O=C(/C=C/c1ccccc1)NC1C=Nc2ccc(Cl)cc2NC1=O (stereo not drawn) | 27.5 µM (inactive) |
| O=C(CCCCCCCCC(=O)OCCCn1cc(C(=O)NC(=O)OCc2ccccc2)c(=O)[nH]c1=O)OCCCn1cc(C(=O)NC(=O)OCc2ccccc2)c(=O)[nH]c1=O | > 100 µM (inactive) |
| C[C@]12CC[C@H]3[C@@H](CC[C@]4(O)C[C@@H](O)CC[C@]34CO)[C@@]1(O)CC[C@@H]2C1=CC(=O)OC1 | 1.48 µM (inactive) |
| CN1C(=S)C(c2ccccc2)Sc2ccccc21 (stereo not drawn) | 55.7 µM (inactive) |
| NCC(=O)NC1(c2cc3ccccc3s2)CCCCC1 | 71.4 µM (inactive) |

# map each molecule to its GI50
1. O=C1C(Cl)=C(Cl)C(=O)N1c1ccc(F)cc1 [FLUOROIMIDE]
2. CC(C)(C)c1cc(OCc2nnc3sc(-c4ccc(Cl)cc4)nn23)c(Cl)cc1OCc1nnc2sc(-c3ccc(Cl)cc3)nn12

["17.5 µM (inactive)", "4.94 µM (inactive)"]

Given Cc1cccc(C(C)O)n1 (stereo not drawn) , report its GI50 on NCI-H23.
> 100 µM (inactive)

----------
Test system: TK-10
Test: NCI tumour cell line growth inhibition, 48 h
Active and inactive are the calls of the source. No stated cut-off is given here; in the data, active = GI50 up to about 1.1 µM and inactive = higher.
Measured Quantity: GI50

In the examples that follow, each entry is paired with its recorded GI50.
| Molecule | GI50 |
| --- | --- |
| Cc1ccccc1/N=N/c1ccc(/N=N/c2c(O)ccc3ccccc23)c(C)c1 | > 100 µM (inactive) |
| CC(C)(C)OC(=O)N/N=C(/N)c1ccccc1 | > 100 µM (inactive) |
| COc1ccc(Nc2nc3cc(C(F)(F)F)ccc3nc2-c2ccccc2)cc1OC | 15 µM (inactive) |

# map each molecule to its GI50
1. CCOc1ccccc1NC(=O)C1=C(C)NC(C)=C(C(=O)Nc2ccccc2OCC)C1c1ccc(NC(C)=O)cc1
2. COC(=O)C1=C(C(=O)OC)C2(CCCCCC2=O)OC1=O (centres undefined)
3. Cc1ccc(S(=O)(=O)N/N=C/c2oc(-c3cccc([N+](=O)[O-])c3)c(-c3cccc([N+](=O)[O-])c3)c2[N+](=O)[O-])cc1
4. CCOC(=O)C1=C(c2ccccc2)N(C(C)=O)Cc2ccccc21
5. c1ccc2cc(CNCCOCCOCCNCc3ccc4ccccc4c3)ccc2c1

47.6 µM (inactive)
> 100 µM (inactive)
> 100 µM (inactive)
45.3 µM (inactive)
1.62 µM (inactive)

# map each molecule to its GI50
1. COc1ccc(C2SCC(=O)N2NC(=O)C(C)Oc2ccccc2C)cc1 (centres undefined)
2. O=C(O)c1ccccc1C(=O)NCC1S(=O)(=O)OCCOS1(=O)=O
3. CCCc1c(C(=O)OCC)[nH]c(-c2ccc(-c3[nH]c(C(=O)OCC)c(CCC)c3C(=O)OCC)s2)c1C(=O)OCC

1. > 100 µM (inactive)
2. > 100 µM (inactive)
3. 50.1 µM (inactive)

# map each molecule to its GI50
1. CCOC(=O)N/N=C(/N)Cc1ccc(Cl)cc1
2. CCCCCCCCCCCc1c(O)c(=O)c2c(oc3c(=O)c(CCCCCCCCCCC)c(O)c(=O)c3n2-c2ccc(N(C)C)cc2)c1=O
3. Cc1nc(-c2ccccc2)cn2c1nc1ccccc12
4. CC(=O)OCC1OC(OC2CC3C(C)(C)C(O)CC[C@]3(C)C3CCC45CC4(CC[C@H]5C(C)CC(O)C4OC4(C)C)[C@]23C)C(O)C(O)C1O (some centres undefined)
5. CC(C)(C)NC(=O)/C(=C\Sc1ccccc1)c1ccc2c(c1)OCO2
6. Nc1c(S(=O)(=O)O)cc(S(=O)(=O)O)c2ccc(/N=N/c3ccccc3)c(O)c12
7. N#Cc1c(-c2cccc(Cl)c2)cc(-c2ccc(Cl)cc2)nc1N
8. C#CC(O)(c1nc2ccccc2s1)c1nc2ccccc2s1

1. > 100 µM (inactive)
2. 15.6 µM (inactive)
3. 29.3 µM (inactive)
4. 8.73 µM (inactive)
5. 44.8 µM (inactive)
6. > 100 µM (inactive)
7. 19.7 µM (inactive)
8. 36.6 µM (inactive)
